Assay read-out GI50; system under study: K562 cells.
readout label: GI50

>  <compound>
Cc1cn2cc(NC(=O)c3ccc(N4CC(C)(C)NC(C)(C)C4)c4cc(C)oc34)cc(F)c2n1 [Compound 195]

>  <readout label>
GI50

>  <test result>
100 to 1000 nM

$$$$
>  <compound>
Cc1cn2cc(NC(=O)c3ccc(N4CCC(C)(NC(C)C)C4)c4cn(C)nc34)cc(F)c2n1 (stereo not shown) [Compound 574]

>  <readout label>
GI50

>  <test result>
100 to 1000 nM

$$$$
>  <compound>
CCn1cc2c(N3CCC(N[C@H]4C[C@@H](O)C4)CC3)ccc(C(=O)Nc3cc(F)c4nc(C)cn4c3)c2n1 [Compound 559]

>  <readout label>
GI50

>  <test result>
< 100 nM

$$$$
>  <compound>
Cc1cn2cc(NC(=O)c3ccc(N4CCN(C)C(C)C4)c4cc(C)oc34)cc(F)c2n1 (stereo not shown) [Compound 191]

>  <readout label>
GI50

>  <test result>
100 to 1000 nM

$$$$
>  <compound>
Cc1cn2cc(NC(=O)c3ccc(N4CCNCC4)c4cn(C)nc34)cc(F)c2n1 [Compound 143]

>  <readout label>
GI50

>  <test result>
100 to 1000 nM

$$$$
>  <compound>
Cc1cn2cc(NC(=O)c3ccc(N4CCNCC4)c4oc(C)nc34)cc(F)c2n1 [Compound 141]

>  <readout label>
GI50

>  <test result>
100 to 1000 nM

$$$$
>  <compound>
CC1=CC2C(N3CCC(N(C)C)CC3)=CC=C(C(=O)Nc3cc(F)c4nc(C)cn4c3)C2O1 (stereo not shown) [Compound 198]

>  <readout label>
GI50

>  <test result>
< 100 nM

$$$$

Attribution: patent US20250154169A1
